target: CYP1A2 (Homo sapiens, UniProt P05177); construct: purchased Cerep (contract assay, ADMET Study 13170); test: CYP1A2 Inhibition (recombinant, CEC substrate); assay type: in vitro ADME; settings: recombinant CYP1A2, probe CEC; 1.0E−06 M; read-out: CYP1A2 % Inhibition of Control Values
Sequence (P05177 whole entry): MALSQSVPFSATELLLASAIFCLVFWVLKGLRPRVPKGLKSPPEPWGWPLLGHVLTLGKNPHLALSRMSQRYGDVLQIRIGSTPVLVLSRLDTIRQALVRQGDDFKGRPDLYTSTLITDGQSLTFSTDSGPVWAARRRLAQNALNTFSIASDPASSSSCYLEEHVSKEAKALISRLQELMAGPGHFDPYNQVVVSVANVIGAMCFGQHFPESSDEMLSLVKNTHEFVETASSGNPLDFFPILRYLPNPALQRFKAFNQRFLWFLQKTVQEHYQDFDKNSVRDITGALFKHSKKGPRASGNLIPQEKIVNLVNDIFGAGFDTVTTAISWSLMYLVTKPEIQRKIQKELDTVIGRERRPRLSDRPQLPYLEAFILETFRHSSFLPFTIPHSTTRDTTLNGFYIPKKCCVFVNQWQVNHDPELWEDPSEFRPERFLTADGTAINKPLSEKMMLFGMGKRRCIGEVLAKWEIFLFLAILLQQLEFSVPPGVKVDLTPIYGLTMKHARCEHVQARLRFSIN
measured_metric: inhibition at 1 µM (%)
Give the value in % but do not write % after it.

Query: Consider the compound shown here: Cc1ccc(F)cc1C[C@H](C)Nc1cc[nH]c(=O)c1-c1nc2cc3c(cc2[nH]1)C(=O)N(CCN1CCCC1)C3 [compound (II)] What is its recorded inhibition at 1 µM?
Result: -7
